- Assay target: Melanocortin receptor 3 (Homo sapiens, UniProt P41968); note: in other assays of this panel Not Active means under 50% inhibition at 10 µM
- Sequence (P41968 whole entry): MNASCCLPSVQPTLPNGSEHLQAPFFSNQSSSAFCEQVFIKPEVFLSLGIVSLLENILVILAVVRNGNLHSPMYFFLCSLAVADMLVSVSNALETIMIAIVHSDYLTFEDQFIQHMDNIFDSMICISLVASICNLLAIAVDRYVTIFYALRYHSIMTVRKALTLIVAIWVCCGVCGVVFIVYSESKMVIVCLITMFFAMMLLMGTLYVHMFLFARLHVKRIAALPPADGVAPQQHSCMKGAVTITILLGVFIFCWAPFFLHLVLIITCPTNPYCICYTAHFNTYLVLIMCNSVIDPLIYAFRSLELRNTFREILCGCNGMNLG
- Format: cell membranes, HEK293, Membrane
- Test conditions: hek293

>  <Substance>
GRAMICIDIN

>  <Ki>
Not Active

$$$$
>  <Substance>
GENTAMICIN

>  <Ki>
Not Active

$$$$
>  <Substance>
NYSTATIN

>  <Ki>
Not Active

$$$$
>  <Substance>
AURANOFIN

>  <Ki>
Not Active

$$$$
>  <Substance>
GADOPENTETATE DIMEGLUMINE

>  <Ki>
Not Active

$$$$
>  <Substance>
MANGANESE CHLORIDE ANHYDROUS

>  <Ki>
Not Active

$$$$
>  <Substance>
SODIUM ORTHOVANAD

>  <Ki>
Not Active

$$$$

----------
- Assay target: Alpha-1D adrenergic receptor (Homo sapiens, UniProt P25100); note: in other assays of this panel Not Active means under 50% inhibition at 10 µM
- Sequence (P25100 whole entry): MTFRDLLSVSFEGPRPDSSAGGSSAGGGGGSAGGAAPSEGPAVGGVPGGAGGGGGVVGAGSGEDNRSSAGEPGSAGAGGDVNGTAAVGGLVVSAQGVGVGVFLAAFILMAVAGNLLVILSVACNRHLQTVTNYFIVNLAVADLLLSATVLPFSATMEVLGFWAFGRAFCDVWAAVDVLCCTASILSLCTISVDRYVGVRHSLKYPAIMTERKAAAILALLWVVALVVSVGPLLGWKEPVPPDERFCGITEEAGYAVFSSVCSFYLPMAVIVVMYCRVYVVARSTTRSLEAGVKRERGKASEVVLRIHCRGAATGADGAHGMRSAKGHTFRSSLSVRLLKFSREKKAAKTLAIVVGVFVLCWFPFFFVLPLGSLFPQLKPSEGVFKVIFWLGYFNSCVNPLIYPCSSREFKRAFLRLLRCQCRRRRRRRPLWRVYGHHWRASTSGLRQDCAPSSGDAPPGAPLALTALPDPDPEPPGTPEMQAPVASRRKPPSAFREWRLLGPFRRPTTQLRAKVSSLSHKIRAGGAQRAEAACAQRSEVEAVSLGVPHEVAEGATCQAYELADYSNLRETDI
- Format: cell membranes, HEK293, Membrane
- Test conditions: read-out: Ki
pKi: −log10 of the molar value.
Recorded pKi, one value per entry.

>  <Molecule>
Cc1c(C)c2c(c(C)c1O)CCC(C)(CN1CCN(c3cc(N4CCCC4)nc(N4CCCC4)n3)CC1)O2 (stereo not drawn)

>  <Assay target>
Alpha-1D adrenergic receptor (Homo sapiens, UniProt P25100); note: in other assays of this panel Not Active means under 50% inhibition at 10 µM

>  <pKi>
4.88

$$$$
>  <Molecule>
CN(C)CC[C@@H](c1ccc(Cl)cc1)c1ccccn1 [DEXCHLORPHENIRAMINE]

>  <Assay target>
Alpha-1D adrenergic receptor (Homo sapiens, UniProt P25100); note: in other assays of this panel Not Active means under 50% inhibition at 10 µM

>  <pKi>
4.78

$$$$
>  <Molecule>
COc1cc(N)c(Cl)cc1C(=O)NC1CCN(CCCOc2ccc(F)cc2)CC1OC (stereo not drawn) [CISAPRIDE]

>  <Assay target>
Alpha-1D adrenergic receptor (Homo sapiens, UniProt P25100); note: in other assays of this panel Not Active means under 50% inhibition at 10 µM

>  <pKi>
7.03

$$$$
>  <Molecule>
Clc1ccc(COC(Cn2ccnc2)c2ccc(Cl)cc2Cl)cc1 (stereo not drawn) [ECONAZOLE]

>  <Assay target>
Alpha-1D adrenergic receptor (Homo sapiens, UniProt P25100); note: in other assays of this panel Not Active means under 50% inhibition at 10 µM

>  <pKi>
5.36

$$$$
>  <Molecule>
CO[C@@H]1[C@@H](OC)[C@H](C)[C@@](O)(CC(=O)O)O[C@H]1[C@H](C)[C@H]1O[C@@]2(CC[C@@](C)([C@H]3CC[C@@](C)([C@@H]4O[C@@H]([C@H]5O[C@](C)(O)[C@H](C)C[C@@H]5C)C[C@@H]4O[C@@H]4C[C@H](OC)[C@@H](OC)[C@H](C)O4)O3)O2)C[C@H](O)[C@H]1C [MADURAMICIN ACID]

>  <Assay target>
Alpha-1D adrenergic receptor (Homo sapiens, UniProt P25100); note: in other assays of this panel Not Active means under 50% inhibition at 10 µM

>  <pKi>
6.26

$$$$
>  <Molecule>
COc1cc2nc(N3CCN(C(=O)C4CCCO4)CC3)nc(N)c2cc1OC (stereo not drawn) [TERAZOSIN]

>  <Assay target>
Alpha-1D adrenergic receptor (Homo sapiens, UniProt P25100); note: in other assays of this panel Not Active means under 50% inhibition at 10 µM

>  <pKi>
8.08

$$$$
>  <Molecule>
Brc1c(NC2=NCCN2)ccc2nccnc12 [BRIMONIDINE]

>  <Assay target>
Alpha-1D adrenergic receptor (Homo sapiens, UniProt P25100); note: in other assays of this panel Not Active means under 50% inhibition at 10 µM

>  <pKi>
6.07

$$$$
>  <Molecule>
Fc1ccc(C(c2ccc(F)cc2)N2CCN(C/C=C/c3ccccc3)CC2)cc1 [FLUNARIZINE]

>  <Assay target>
Alpha-1D adrenergic receptor (Homo sapiens, UniProt P25100); note: in other assays of this panel Not Active means under 50% inhibition at 10 µM

>  <pKi>
6.27

$$$$

----------
- Assay target: UniProt P50406
- Sequence (P50406 whole entry): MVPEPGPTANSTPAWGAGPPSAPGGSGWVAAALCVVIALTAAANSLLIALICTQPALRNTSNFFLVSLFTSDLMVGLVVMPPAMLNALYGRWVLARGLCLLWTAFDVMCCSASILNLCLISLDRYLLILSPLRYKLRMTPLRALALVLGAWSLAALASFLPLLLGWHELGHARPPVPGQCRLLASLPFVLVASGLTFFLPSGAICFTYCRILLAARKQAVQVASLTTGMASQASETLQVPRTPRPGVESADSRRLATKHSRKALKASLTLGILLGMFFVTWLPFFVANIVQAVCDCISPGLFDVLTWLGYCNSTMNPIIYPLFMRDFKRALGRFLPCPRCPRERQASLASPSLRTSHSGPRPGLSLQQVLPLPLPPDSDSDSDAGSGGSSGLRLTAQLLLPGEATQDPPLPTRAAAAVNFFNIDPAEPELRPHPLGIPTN
- Assay type: cell membranes, HeLa, Membrane
- Test conditions: read-out: IC50

>  <Compound>
CO[C@@H]1[C@@H](OC)[C@H](C)[C@@](O)(CC(=O)O)O[C@H]1[C@H](C)[C@H]1O[C@@]2(CC[C@@](C)([C@H]3CC[C@@](C)([C@@H]4O[C@@H]([C@H]5O[C@](C)(O)[C@H](C)C[C@@H]5C)C[C@@H]4O[C@@H]4C[C@H](OC)[C@@H](OC)[C@H](C)O4)O3)O2)C[C@H](O)[C@H]1C [MADURAMICIN ACID]

>  <Assay target>
UniProt P50406

>  <IC50 (nM)>
1.7

$$$$
>  <Compound>
CCCNCC(O)COc1ccccc1C(=O)CCc1ccccc1 (configuration not stated) [PROPAFENONE]

>  <Assay target>
UniProt P50406

>  <IC50 (nM)>
1860

$$$$

----------
- Assay target: Alpha-1B adrenergic receptor (Rattus norvegicus, UniProt P15823)
- Sequence (P15823 whole entry): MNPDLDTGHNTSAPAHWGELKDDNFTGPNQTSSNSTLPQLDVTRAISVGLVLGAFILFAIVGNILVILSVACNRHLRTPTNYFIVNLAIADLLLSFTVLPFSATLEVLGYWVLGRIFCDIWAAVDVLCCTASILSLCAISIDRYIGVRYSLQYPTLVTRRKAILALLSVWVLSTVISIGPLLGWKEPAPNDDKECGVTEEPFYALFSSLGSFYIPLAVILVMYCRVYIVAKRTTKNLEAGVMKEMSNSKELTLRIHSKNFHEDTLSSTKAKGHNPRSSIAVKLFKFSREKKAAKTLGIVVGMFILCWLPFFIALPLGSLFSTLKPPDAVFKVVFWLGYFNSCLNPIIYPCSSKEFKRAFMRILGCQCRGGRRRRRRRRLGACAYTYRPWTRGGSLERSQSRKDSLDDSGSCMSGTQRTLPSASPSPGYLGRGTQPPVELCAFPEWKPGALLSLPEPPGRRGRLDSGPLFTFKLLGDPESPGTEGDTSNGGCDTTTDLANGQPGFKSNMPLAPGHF
- Measurement description: DRUGMATRIX: Alpha-1B adrenergic receptor radioligand binding (ligand: prazosin)
- Assay type: cell membranes, Wistar, Liver, Membrane
- Test conditions: Not Active = under 50% inhibition at 10 µM

>  <Molecule>
Brc1c(NC2=NCCN2)ccc2nccnc12 [BRIMONIDINE]

>  <IC50>
Not Active

$$$$
>  <Molecule>
C[C@H]1C[C@@H]2[C@H]([C@@H](O)C[C@@]3(C)[C@H]2CC[C@]3(O)C(=O)CO)[C@@]2(C)C=CC(=O)C=C12 [METHYLPREDNISOLONE]

>  <IC50>
Not Active

$$$$
>  <Molecule>
C=CCc1ccc(O)c(OC)c1 [EUGENOL]

>  <IC50>
Not Active

$$$$
>  <Molecule>
Oc1cccc(O)c1O [PYROGALLOL]

>  <IC50>
Not Active

$$$$
>  <Molecule>
COC1=C(OC)C(=O)C(CCCCCCCCCCO)=C(C)C1=O [IDEBENONE]

>  <IC50>
Not Active

$$$$
>  <Molecule>
O=C(N/N=C/c1ccc([N+](=O)[O-])o1)c1cc([N+](=O)[O-])cc([N+](=O)[O-])c1O [NIFURSOL]

>  <IC50>
Not Active

$$$$
>  <Molecule>
CN(C/C=C/C#CC(C)(C)C)Cc1cccc2ccccc12 [TERBINAFINE]

>  <IC50>
Not Active

$$$$
>  <Molecule>
Cn1c(=O)c2[nH]cnc2n(C)c1=O.Cn1c(=O)c2[nH]cnc2n(C)c1=O.NCCN [AMINOPHYLLINE]

>  <IC50>
Not Active

$$$$
>  <Molecule>
CC(C)(C)NC(=O)[C@H]1CC[C@H]2[C@@H]3CC[C@H]4NC(=O)C=C[C@]4(C)[C@H]3CC[C@]12C [FINASTERIDE]

>  <IC50>
Not Active

$$$$

----------
- Assay target: Sigma non-opioid intracellular receptor 1 (Homo sapiens)
- Sequence (Q99720 whole entry): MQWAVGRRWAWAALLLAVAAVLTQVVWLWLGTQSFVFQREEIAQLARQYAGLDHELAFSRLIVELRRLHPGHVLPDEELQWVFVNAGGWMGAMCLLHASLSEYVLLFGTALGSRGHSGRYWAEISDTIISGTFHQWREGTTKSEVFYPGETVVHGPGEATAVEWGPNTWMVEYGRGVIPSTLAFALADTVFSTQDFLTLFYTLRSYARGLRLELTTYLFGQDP
- Measurement description: DRUGMATRIX: Sigma1 radioligand binding (ligand: [3H] Haloperidol)
- Assay type: cell membranes, Jurkat, Membrane
- Test conditions: Not Active = under 50% inhibition at 10 µM; read-out: IC50

>  <Compound>
COc1cc(N)c(Cl)cc1C(=O)NC1CCN(CCCOc2ccc(F)cc2)CC1OC (stereo not drawn) [CISAPRIDE]

>  <IC50, nM>
994

$$$$
>  <Compound>
OC(CCCN1CCCCC1)(c1ccccc1)c1ccccc1

>  <IC50, nM>
256

$$$$
>  <Compound>
Clc1ccc(COC(Cn2ccnc2)c2ccc(Cl)cc2Cl)cc1 (stereo not drawn)

>  <IC50, nM>
21100

$$$$

----------
- Assay target: 5-hydroxytryptamine receptor 1B (Rattus norvegicus); note: in other assays of this panel Not Active means under 50% inhibition at 10 µM
- Sequence (P28564 whole entry): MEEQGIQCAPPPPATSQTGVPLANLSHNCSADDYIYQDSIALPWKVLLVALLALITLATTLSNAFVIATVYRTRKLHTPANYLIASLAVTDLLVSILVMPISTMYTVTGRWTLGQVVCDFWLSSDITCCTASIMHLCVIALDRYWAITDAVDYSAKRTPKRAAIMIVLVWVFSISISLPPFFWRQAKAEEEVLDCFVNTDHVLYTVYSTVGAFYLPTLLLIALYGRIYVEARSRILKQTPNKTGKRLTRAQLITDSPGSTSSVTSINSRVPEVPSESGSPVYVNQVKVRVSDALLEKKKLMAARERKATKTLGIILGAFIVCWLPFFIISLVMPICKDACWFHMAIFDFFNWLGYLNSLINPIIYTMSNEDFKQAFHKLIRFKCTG
- Type: cell membranes, Wistar, Cerebral cortex, Membrane
- Test conditions: read-out: IC50
pIC50: −log10 of the molar value.
Test readout: pIC50

>  <Compound>
Clc1ccc(COC(Cn2ccnc2)c2ccc(Cl)cc2Cl)cc1 (stereo not drawn)

>  <Measured number>
4.66

$$$$
>  <Compound>
CO[C@@H]1[C@@H](OC)[C@H](C)[C@@](O)(CC(=O)O)O[C@H]1[C@H](C)[C@H]1O[C@@]2(CC[C@@](C)([C@H]3CC[C@@](C)([C@@H]4O[C@@H]([C@H]5O[C@](C)(O)[C@H](C)C[C@@H]5C)C[C@@H]4O[C@@H]4C[C@H](OC)[C@@H](OC)[C@H](C)O4)O3)O2)C[C@H](O)[C@H]1C

>  <Measured number>
8.53

$$$$
>  <Compound>
C[C@@H](CO)NC(=O)[C@@H]1C=C2c3cccc4[nH]cc(c34)C[C@H]2N(C)C1

>  <Measured number>
8.55

$$$$
